ASSAY_SYSTEM: HLA-A*24:02
TEST_PROTOCOL: IEDB peptide-MHC binding, purified MHC/competitive/fluorescence; bounds were set here for any values at or beyond the usual limits of such assays
TEST_PARAMETERS: source organism: Variola virus
EXPERIMENTAL_ENDPOINT: IC50
The number alone won't do; follow it with the unit.

## Input Reported IC50 for IPLASLTPK : what is it?
## Output 22.1 µM

* * *

ASSAY_SYSTEM: HLA-B*48:01
TEST_PROTOCOL: IEDB peptide-MHC binding, purified MHC/competitive/fluorescence; filed as Kd, often an IC50 or EC50 that approximates it; bounds were set here for any values at or beyond the usual limits of such assays
TEST_PARAMETERS: source organism: Yersinia pestis Nepal516
EXPERIMENTAL_ENDPOINT: pKd
# pKd: negative log10 of molar concentration; output just the value

## Input Reported pKd for RMAMIPRTL : what is it?
## Output 7.06

* * *

ASSAY_SYSTEM: HLA-B*27:03
TEST_PROTOCOL: IEDB peptide-MHC binding, purified MHC/competitive/fluorescence; filed as Kd, often an IC50 or EC50 that approximates it; bounds were set here for any values at or beyond the usual limits of such assays
TEST_PARAMETERS: source organism: Rickettsia sibirica 246
pKd: −log10 of the molar value.
EXPERIMENTAL_ENDPOINT: pKd

## Input # get_value(readout= pKd, system= HLA-B*27:03) for SVANIDRIK
## Output ≤ 4.70

* * *

ASSAY_SYSTEM: HLA-A*69:01
TEST_PROTOCOL: IEDB peptide-MHC binding, purified MHC/competitive/fluorescence; filed as Kd, often an IC50 or EC50 that approximates it; bounds were set here for any values at or beyond the usual limits of such assays
TEST_PARAMETERS: source organism: Entamoeba histolytica HM-1:IMSS
pKd: −log10 of the molar value.
EXPERIMENTAL_ENDPOINT: pKd

## Input Reported pKd for KTFEWGVFY : what is it?
## Output ≤ 4.70

* * *

ASSAY_SYSTEM: HLA-B*40:01
TEST_PROTOCOL: IEDB peptide-MHC binding, purified MHC/direct/fluorescence; filed as Kd, often an IC50 or EC50 that approximates it; bounds were set here for any values at or beyond the usual limits of such assays
TEST_PARAMETERS: source organism: Escherichia coli 536
pKd: −log10 of the molar value.
EXPERIMENTAL_ENDPOINT: pKd

## Input Reported pKd for RYICPVQQI : what is it?
## Output ≤ 4.70

* * *

ASSAY_SYSTEM: HLA-A*02:16
TEST_PROTOCOL: IEDB peptide-MHC binding, purified MHC/competitive/fluorescence; filed as Kd, often an IC50 or EC50 that approximates it; bounds were set here for any values at or beyond the usual limits of such assays
TEST_PARAMETERS: source organism: Shigella dysenteriae Sd197
EXPERIMENTAL_ENDPOINT: Kd

## Input Reported Kd for IEDDEIIWV : what is it?
## Output ≥ 20 µM

* * *

ASSAY_SYSTEM: HLA-B*08:01
TEST_PROTOCOL: IEDB peptide-MHC binding, purified MHC/competitive/radioactivity; filed as Kd, often an IC50 or EC50 that approximates it; bounds were set here for any values at or beyond the usual limits of such assays
TEST_PARAMETERS: source organism: Variola virus
EXPERIMENTAL_ENDPOINT: Kd
The number alone won't do; follow it with the unit.

## Input Reported Kd for LSINSSFYF : what is it?
## Output 3.16 µM
